// values below are reported IC50
Tgt: Escherichia coli GUS (EcGUS) (Escherichia coli)
Sequence (P05804 whole entry): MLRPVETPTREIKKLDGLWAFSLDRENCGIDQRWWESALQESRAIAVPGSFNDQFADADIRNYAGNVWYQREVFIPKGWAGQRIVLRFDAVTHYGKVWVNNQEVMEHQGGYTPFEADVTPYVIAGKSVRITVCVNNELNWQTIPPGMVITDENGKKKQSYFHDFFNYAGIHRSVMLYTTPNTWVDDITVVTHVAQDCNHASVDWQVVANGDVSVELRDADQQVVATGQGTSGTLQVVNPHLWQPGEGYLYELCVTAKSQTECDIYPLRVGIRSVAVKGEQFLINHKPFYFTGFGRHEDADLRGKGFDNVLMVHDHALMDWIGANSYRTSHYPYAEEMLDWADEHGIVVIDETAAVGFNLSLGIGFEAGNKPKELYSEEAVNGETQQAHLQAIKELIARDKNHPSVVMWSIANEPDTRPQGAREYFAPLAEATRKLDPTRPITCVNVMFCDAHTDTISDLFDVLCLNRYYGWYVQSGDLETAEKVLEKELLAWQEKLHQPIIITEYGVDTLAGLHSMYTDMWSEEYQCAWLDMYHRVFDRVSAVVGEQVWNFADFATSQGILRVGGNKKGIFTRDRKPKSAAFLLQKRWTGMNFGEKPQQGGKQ
Method Notes: EcGUS inhibition assay
Format: biochemical
Write the numeric value and append its unit.

Quick one: IC50 of C[C@@H]1O[C@@H](O[C@@H]2[C@@H](O)[C@H](OCCc3ccc(O)c(O)c3)O[C@H](CO)[C@H]2OC(=O)/C=C/c2ccc(O)c(O)c2)[C@H](O)[C@H](O)[C@H]1O [acteoside] ?
3.2 µM

API: the following record is the query input.
For the compound shown here, C[C@@H]1O[C@@H](O[C@@H]2[C@@H](O)[C@H](OCCc3ccc(O)c(O)c3)O[C@H](COC(=O)/C=C/c3ccc(O)c(O)c3)[C@H]2O)[C@H](O)[C@H](O)[C@H]1O [isoacteoside] , give the reported IC50.
8.8 µM
